The measurements presented in this section are drawn from patent EP4644396A1.

Exercise: state measured IC50 for each of the compounds provided.
Target: human TLR8 (Homo sapiens, UniProt Q9NR97)
Construct: expressed in transfected cells
Sequence (Q9NR97 27-1041): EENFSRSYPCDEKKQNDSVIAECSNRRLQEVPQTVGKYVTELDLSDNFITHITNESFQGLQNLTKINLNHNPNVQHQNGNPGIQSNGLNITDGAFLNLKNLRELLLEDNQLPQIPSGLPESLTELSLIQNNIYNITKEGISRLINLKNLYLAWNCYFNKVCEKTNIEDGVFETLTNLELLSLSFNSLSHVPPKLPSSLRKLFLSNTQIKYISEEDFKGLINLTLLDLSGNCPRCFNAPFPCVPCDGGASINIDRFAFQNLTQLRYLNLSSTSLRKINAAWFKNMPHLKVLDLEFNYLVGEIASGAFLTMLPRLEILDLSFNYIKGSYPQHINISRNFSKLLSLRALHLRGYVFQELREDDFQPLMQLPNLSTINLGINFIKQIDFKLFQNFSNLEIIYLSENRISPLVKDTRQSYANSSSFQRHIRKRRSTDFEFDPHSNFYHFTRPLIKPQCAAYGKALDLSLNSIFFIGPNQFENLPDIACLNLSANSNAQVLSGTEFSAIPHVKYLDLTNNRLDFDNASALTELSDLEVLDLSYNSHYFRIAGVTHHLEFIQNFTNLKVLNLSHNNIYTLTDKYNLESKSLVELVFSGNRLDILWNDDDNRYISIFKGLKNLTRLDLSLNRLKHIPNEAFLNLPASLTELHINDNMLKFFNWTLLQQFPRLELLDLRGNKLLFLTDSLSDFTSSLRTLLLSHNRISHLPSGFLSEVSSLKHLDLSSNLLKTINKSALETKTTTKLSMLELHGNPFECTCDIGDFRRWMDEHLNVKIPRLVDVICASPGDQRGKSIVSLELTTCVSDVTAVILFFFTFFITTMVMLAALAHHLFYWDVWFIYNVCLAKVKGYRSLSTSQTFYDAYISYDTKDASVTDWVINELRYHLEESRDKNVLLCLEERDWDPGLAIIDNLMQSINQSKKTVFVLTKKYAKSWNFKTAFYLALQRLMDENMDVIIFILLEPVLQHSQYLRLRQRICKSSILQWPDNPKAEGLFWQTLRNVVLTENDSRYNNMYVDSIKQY
Test: HEK-Blue hTLR8 SEAP reporter gene inhibition assay
Assay type: cell-based
Conditions: hTLR8 HEK-Blue cells, TLR8 ligand 10 µM, 20 hours, SEAP by Quanti-blue; class symbols; read-out: HEK-Blue hTLR8 IC50

* C[C@@H]1CN(c2ccc(C#N)n3ncc(F)c23)Cc2c3c(nn21)C(C)(C)NCC3 | < 100 nM
* C[C@@H]1CN(c2ccc(C#N)n3ncc(F)c23)Cc2c3c(nn21)CC(C)(N)CC3 (stereo partly drawn) [Example I-71] | < 100 nM
* C[C@@H]1CN(c2ccc(C#N)n3ncc(F)c23)Cc2c3c(nn21)[C@@H](C)NCC3 | < 100 nM
* C[C@@H]1CN(c2ccc(C#N)n3ncc(F)c23)Cc2c3c(nn21)CN(C(CO)CO)[C@@H](C)C3 | > 100 nM
* C[C@@H]1CN(c2ccc(C#N)n3ncc(F)c23)Cc2c3c(nn21)CC(N)C(O)C3 (stereo partly drawn) | < 100 nM
* CC1Cc2c(nn3c2CN(c2ccc(C#N)n4ncc(F)c24)C[C@H]3C)C(C)N1 (single isomer, unassigned) [Example I-88a] | < 100 nM
* CC1Cc2nn3c(c2CN1)CN(c1ccc(C#N)n2ncc(F)c12)C[C@H]3C (single isomer, unassigned) [Example I-11a] | < 100 nM
* C[C@@H]1CN(c2ccc(C#N)n3ncc(F)c23)Cc2c3c(nn21)CN(CC(=O)N1C[C@H](C)N[C@@H](C)C1)[C@@H](C)C3 [Example I-144] | > 100 nM

Hi there! I need IC50 for each item below, if you can.
1. C[C@@H]1CN(c2ccc(C#N)n3ncc(F)c23)Cc2c3c(nn21)CN(CC(=O)N1CC(F)(F)C1)[C@@H](C)C3
2. C[C@@H]1CN(c2ccc(C#N)n3ncc(F)c23)Cc2c3c(nn21)CC(N1CCOCC1)CC3 (stereo partly drawn)
3. C[C@@H]1CN(c2ccc(C#N)n3ncc(F)c23)Cc2c3c(nn21)CN(C[C@@H](O)CO)[C@@H](C)C3
4. C[C@@H]1CN(c2ccc(C#N)n3ncc(F)c23)Cc2c3c(nn21)CNC(Cc1ccn[nH]1)C3 (stereo partly drawn)
5. C[C@@H]1CN(c2ccc(C#N)n3ncc(F)c23)Cc2c3c(nn21)CN(CC1(N)COC1)[C@@H](C)C3
6. C[C@@H]1CN(c2ccc(C#N)n3ncc(F)c23)Cc2c3c(nn21)CN(S(=O)(=O)CCN(C)C)[C@@H](C)C3
7. CC(C)CC1NCCc2c1nn1c2CN(c2ccc(C#N)n3ncc(F)c23)C[C@H]1C (stereo partly drawn)

> 100 nM
< 100 nM
< 100 nM
< 100 nM
> 100 nM
< 100 nM
< 100 nM
